target: hKOR receptor (Homo sapiens, UniProt P41145)
Sequence (P41145 whole entry): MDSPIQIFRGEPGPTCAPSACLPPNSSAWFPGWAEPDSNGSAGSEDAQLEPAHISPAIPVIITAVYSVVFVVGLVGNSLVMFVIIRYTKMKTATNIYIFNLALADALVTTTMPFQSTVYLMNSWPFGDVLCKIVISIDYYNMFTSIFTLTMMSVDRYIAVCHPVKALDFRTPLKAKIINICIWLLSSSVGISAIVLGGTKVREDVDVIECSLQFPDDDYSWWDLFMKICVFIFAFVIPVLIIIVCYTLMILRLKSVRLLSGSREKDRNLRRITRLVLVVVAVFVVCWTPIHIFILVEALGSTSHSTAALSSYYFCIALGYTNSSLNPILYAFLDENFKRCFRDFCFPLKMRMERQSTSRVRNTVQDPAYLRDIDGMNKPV
Reported property: pIC50
Answers are plain numbers, as −log10 of the molar value.

Form field pIC50, entry "COC(=O)[C@@H]1C[C@H](OC(=O)/C=C/c2ccccc2)C(=O)[C@H]2[C@@]1(C)CC[C@H]1C(=O)O[C@H](c3ccoc3)C[C@]21C" : 8.15

====

target: κ-opioid receptor (KOR) (Homo sapiens); type: binding
Sequence (P41145 whole entry): as above
Reported property: Selectivity MOR/KOR

Use these answered entries as a reference point.
compound="COC(=O)[C@@H]1C[C@H](OC(=O)/C=C/c2ccc([N+](=O)[O-])cc2)C(=O)[C@H]2[C@@]1(C)CC[C@H]1C(=O)O[C@H](c3ccoc3)C[C@]21C [5i, 2-O-(4″-Nitrocinnamoyl)salvinorin B]" meas_value=>35
compound="COC(=O)[C@@H]1C[C@H](OC(=O)/C=C/c2ccc(OC)cc2)C(=O)[C@H]2[C@@]1(C)CC[C@H]1C(=O)O[C@H](c3ccoc3)C[C@]21C [5c, 2-O-(4″-Methoxycinnamoyl)salvinorin B]" meas_value=>74
compound="COC(=O)[C@@H]1C[C@H](OC(=O)/C=C/c2ccc(OC)cc2OC)C(=O)[C@H]2[C@@]1(C)CC[C@H]1C(=O)O[C@H](c3ccoc3)C[C@]21C [5e]" meas_value=>62
compound="C/C=C(\\C)C(=O)O[C@H]1C[C@@H](C(=O)OC)[C@]2(C)CC[C@H]3C(=O)O[C@H](c4ccoc4)C[C@]3(C)[C@H]2C1=O [4g, 2-O-(2′,3′-Dimethylacryloyl)salvinorin B]" meas_value=>65

Here is another compound to look at.
Form field Selectivity MOR/KOR, entry COC(=O)[C@@H]1C[C@H](OC(=O)/C=C/c2cc(OC)ccc2OC)C(=O)[C@H]2[C@@]1(C)CC[C@H]1C(=O)O[C@H](c3ccoc3)C[C@]21C [5d] : >17
